This section presents molecules with their documented Blackgrass plant response rating values.
# Test system: blackgrass
# protocol: Test B postemergence herbicide test
# Format: in vivo, Alopecurus myosuroides
# measurement-parameters: postemergence, 125 g ai/ha; visual rating, scale 0 (no effect) to 100 (complete control)
measured-parameter: Blackgrass plant response rating

structure	system-under-test	recorded-measurement
CCNC(=O)c1cc(NC(=O)c2cc(C(C)(C)C)nn2CC)ccn1	blackgrass	0
CCc1nn(C(C)(C)C)cc1C(=O)Nc1cc(C(=O)N(C)CC)ccc1F	blackgrass	0
CCc1nc(C(C)(C)C)sc1C(=O)Nc1cccc(C(=O)N(CC)CC)n1	blackgrass	0
CCn1nc(C(C)(C)C)cc1C(=O)Nc1cccc(C(=O)NCC(C)C)c1	blackgrass	0
CCCCOc1cccc(NC(=O)c2cc(C(C)(C)C)nn2CC)c1	blackgrass	10
